# credit: patent US12098148B2

Target: human KEAP1 (N-term, residues 321-609) (Homo sapiens)
Experiment: biochemical
Readings of pIC50 for the listed compounds
Note on pIC50: it is the negative log10 of concentration, concentration in mol/L.

Example entries and their recorded answers appear below.
CC(C)n1nnc(COc2ccc(Cl)c3c2[C@@H](CN2CCCC2=O)N(C(=O)[C@@H]2CCC[C@]2(C)C(=O)O)CC3)c1C(F)F    8.01
Cn1nnc(COc2ccc(Cl)c3c2[C@@H](CN2CC4(CC4)CC2=O)N(C(=O)[C@@H]2C[C@@H]4C[C@@H]4C[C@]2(C)C(=O)O)CC3)c1C(F)F    8.29

Shifting focus to the compound that follows.
Provide pIC50, tested on human KEAP1 (N-term, residues 321-609) (Homo sapiens), for Cc1cnc(COc2ccc(Br)c3c2[C@@H](CN2Cc4ccccc4C2=O)N(C(=O)[C@@H]2CCCC[C@@H]2C(=O)O)CC3)s1 .
7.85

* * *

Biological target: human KEAP1 (N-term, residues 321-609) (Homo sapiens, UniProt Q14145)
Sequence (Q14145 321-609): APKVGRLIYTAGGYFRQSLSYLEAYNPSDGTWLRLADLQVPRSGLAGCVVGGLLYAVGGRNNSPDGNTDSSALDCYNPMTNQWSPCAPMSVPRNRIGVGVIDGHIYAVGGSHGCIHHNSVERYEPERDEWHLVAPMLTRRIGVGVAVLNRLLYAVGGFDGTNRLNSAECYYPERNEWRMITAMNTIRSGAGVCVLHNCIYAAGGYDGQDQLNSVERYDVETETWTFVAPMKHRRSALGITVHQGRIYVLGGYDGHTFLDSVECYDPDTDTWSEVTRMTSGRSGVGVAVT
Assay: biochemical
Reported property: pIC50
Keep it numeric: pIC50 is minus log10 of the concentration in mol/L.

Cc1nnc(COc2ccc(Cl)c3c2[C@@H](CN2CC4(CC4)CC2=O)N(C(=O)[C@@H]2CCCC[C@]2(C)C(=O)O)CC3)n1C1CC1 [Example 177]    8.28
Cn1nnc(COc2ccc(Cl)c3c2[C@@H](CN2CCCC2=O)N(C(=O)[C@H]2CCCC[C@]2(C)C(=O)O)CC3)c1C(F)(F)F [Example 169]    7.21

Would you kindly look at the next entry?
Determine from records and report pIC50 for Cc1ncc(C(=O)N2CC[C@H](Oc3cccc4c3[C@@H](CN3C(=O)c5ccccc5C3=O)N(C(=O)[C@@H]3CCCC[C@@H]3C(=O)O)CC4)C2)s1 [Example 7]
8.21

* * *

Measured pIC50 values are reported for all entries that follow.
Target: human KEAP1 (N-term, residues 321-609) (Homo sapiens, UniProt Q14145);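 note: fluorescence polarization competition assay of Kelch domain binding to NRF2, 12-point 1:3 dilution series from 10 µM, read after 1 h at room temperature, floor 10 nM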
Assay: biochemical
Note on units: pIC50 is unitless, being -log10 of a concentration expressed in mol/L.

C[C@]1(C(=O)O)CCCC[C@H]1C(=O)N1CCc2c(Cl)ccc(OCc3nnn4c3CCCC4)c2[C@H]1CN1CC2(CC2)CC1=O [Example 170]    8.18
Cn1nnc(COc2ccc(Cl)c3c2[C@@H](CN2CCCC2=O)N(C(=O)[C@@H]2CCCC[C@]2(C)C(=O)O)CC3)c1C(F)(F)F [Example 108]    8.23
CC1CCN(C[C@@H]2c3c(OCc4cn(C(C)C)nn4)ccc(Br)c3CCN2C(=O)[C@@H]2CCCC[C@@H]2C(=O)O)C1=O (single isomer, unassigned) [Example 74]    8.17
Cn1nnc(COc2ccc(Cl)c3c2[C@@H](CN2CCCC2=O)N(C(=O)[C@H]2CCC[C@H]2C(=O)O)CC3)c1C(F)F [Example 87]    6.82

Please list pIC50 recorded for the molecule CC[C@]1(C(=O)O)CCC[C@H]1C(=O)N1CCc2c(Cl)ccc(OCc3nnn(C)c3C(F)F)c2[C@H]1CN1CCCC1=O [Example 118]
8.08

Return reported pIC50. Input molecule: C[C@@H]1CC(=O)N(C[C@@H]2c3c(OCc4nnn(C)c4C(F)F)ccc(Cl)c3CCN2C(=O)[C@@H]2CCC[C@]2(C)C(=O)O)C1 [Example 109]
8.01
